- SUBJECT OF TEST: UniProt Q13627
- PROCEDURE SUMMARY: Cellular DYRK1 autophosphorylation assay in U2-OS cells
- Format: cell-based
- Set-up: full-length, wild-type human DYRK1A (NM_001396) with an HA tag; expressed in transfected cells; host or cells: human U2-OS osteosarcoma cells, transient transfection of a pcDNA3.1 plasmid
- CONDITION NOTES: U2-OS cells transfected with HA-tagged human DYRK1A, 5 hours exposure; read-out: IC50 (μM) P-Ser520-Dyrk1A -Cell assay
- Experimental: On day 2, cells were exposed to a range of concentrations of the test compounds of the invention for 5 hours. […] The relative levels of phospho-Ser520-DYRK1A were assayed using either western blotting or the Mesoscale ELISA platform. […] Chemiluminescence detection was performed using the ECL plus western blotting detection kit (Amersham) and was recorded on ECL plus hyperfilm (Amersham). […] After a further 1 hour, Read Buffer was added and plates were read on the Sector Imager 2400 (Mesoscale). […]
MEASURED ENDPOINT: IC50 (µM)

>  <COMPOUND>
Cc1cccc(O[C@@H](C)Cn2c(C)nc3ccc(-c4cc(N)nc(N)c4)nc32)c1

>  <IC50 / µM>
0.089

$$$$
>  <COMPOUND>
Cc1nc2ccc(-c3cc(N)nc(N)c3)nc2n1CC1Cc2ccccc21 (single isomer, unassigned) [Example 112]

>  <IC50 / µM>
0.09

$$$$
>  <COMPOUND>
Cc1nc2ccc(-c3cc(N)nc(N)c3)nc2n1CCc1ccc2c(c1)OCCO2

>  <IC50 / µM>
0.077

$$$$
>  <COMPOUND>
Cc1nc2ccc(-c3cc(N)nc(N)c3)nc2n1C[C@@H](C)Oc1ccccc1 (single isomer, unassigned)

>  <IC50 / µM>
0.073

$$$$
